target: Aldo-keto reductase family 1 member B1 (Rattus norvegicus, UniProt P07943)
test_readout: pIC50
// returns pIC50 (minus log10 of molar concentration), number only

// worked examples, pIC50 included
chemical_string	test_readout	experimental_result
O=C(O)CN1C(=O)C(=O)N(Cc2nc3c(Cl)cccc3s2)C1=O	pIC50	7.92
O=C(O)Cn1ccc(=O)n(Cc2nc3cc(Cl)ccc3s2)c1=O	pIC50	8.24
O=C(O)CN1C(=O)C(=O)N(Cc2cccc([N+](=O)[O-])c2)C1=S	pIC50	7.60
O=C(O)Cn1ccc(=O)n(Cc2cccc([N+](=O)[O-])c2)c1=O	pIC50	7.47

Let us move to another entry and its pIC50.
Query: Provide the documented pIC50 with Aldo-keto reductase family 1 member B1 (Rattus norvegicus, UniProt P07943) as the system for "O=C(O)Cn1ccc(=O)n(Cc2ccc(Cl)c([N+](=O)[O-])c2)c1=O"
Reply: 7.60

====

biological target: Aldo-keto reductase family 1 member B1 (Rattus norvegicus) (UniProt P07943); assay: Inhibitory activity against rat lens aldose reductase(AR) at the concentration of 1*10e-7 M
Classify by measured inhibition: 1 if it is equal to or exceeds 20%, -1 if it is smaller.

compound	class_label
O=C(O)CN1CC(=O)N(Cc2nc3cc(Cl)ccc3s2)C1=O	1
O=C(O)CN1C(=O)C(O)N(Cc2cccc([N+](=O)[O-])c2)C1=O (stereo not drawn)	-1
O=C(O)Cn1c(=O)ccn(Cc2cccc([N+](=O)[O-])c2)c1=O	1

Query: Quick check: does "O=C(O)CN1CC(=O)N(Cc2cccc([N+](=O)[O-])c2)C1=O" have inhibition greater than or equal to 20%?
Reply: 1

Query: Would you mind doing "C=C1N(CC(=O)O)C(=O)C(=O)N1Cc1cccc([N+](=O)[O-])c1" as well?
Reply: -1

Query: Would you mind doing O=C(O)CN1C(=O)N(Cc2cccc([N+](=O)[O-])c2)C(=O)C1O (stereo not drawn) as well?
Reply: 1

Query: Would you mind doing "O=C(O)CN1C(=O)CC(=O)N(Cc2cccc([N+](=O)[O-])c2)C1=O" as well?
Reply: -1

Query: Would you mind doing "O=C(O)CN1C(=O)CN(Cc2cccc([N+](=O)[O-])c2)C1=O" as well?
Reply: -1

====

Target: Aldo-keto reductase family 1 member A1 (Rattus norvegicus) (UniProt P51635)
Sequence (whole entry): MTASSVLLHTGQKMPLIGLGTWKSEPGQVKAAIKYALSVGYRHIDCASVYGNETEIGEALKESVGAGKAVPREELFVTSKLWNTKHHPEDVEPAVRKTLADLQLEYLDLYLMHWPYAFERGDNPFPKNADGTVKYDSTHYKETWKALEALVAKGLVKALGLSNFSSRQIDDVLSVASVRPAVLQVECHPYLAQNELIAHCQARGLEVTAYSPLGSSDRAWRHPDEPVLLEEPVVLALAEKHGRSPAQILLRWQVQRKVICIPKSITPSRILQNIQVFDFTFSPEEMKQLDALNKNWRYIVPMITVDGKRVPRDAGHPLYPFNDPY
Experiment: Percent inhibition of rat kidney Aldehyde reductase (ALR) at 1x10E-4 M
Quick list: inhibition per entry.
Field: numeric (%). Do not append units.

// worked examples, inhibition included
compound	measurement_target	inhibition [%]
O=C(O)Cn1ccc(=O)n(Cc2ccc(Cl)c([N+](=O)[O-])c2)c1=O	Aldo-keto reductase family 1 member A1 (Rattus norvegicus) (UniProt P51635)	26.5
O=C(O)CN1CC(=O)N(Cc2ccc(Cl)c([N+](=O)[O-])c2)C1=O	Aldo-keto reductase family 1 member A1 (Rattus norvegicus) (UniProt P51635)	1.6
C=C1N(CC(=O)O)C(=O)C(=O)N1Cc1cccc([N+](=O)[O-])c1	Aldo-keto reductase family 1 member A1 (Rattus norvegicus) (UniProt P51635)	12.4
O=C(O)CN1C(=O)N(Cc2cccc([N+](=O)[O-])c2)C(=O)C1O (stereo not given)	Aldo-keto reductase family 1 member A1 (Rattus norvegicus) (UniProt P51635)	11
O=C(O)Cn1ccc(=O)n(Cc2nc3c(Cl)cccc3s2)c1=O	Aldo-keto reductase family 1 member A1 (Rattus norvegicus) (UniProt P51635)	39.3
O=C(O)Cn1ccc(=O)n(Cc2cccc([N+](=O)[O-])c2)c1=O	Aldo-keto reductase family 1 member A1 (Rattus norvegicus) (UniProt P51635)	17.4
O=C(O)CN1C(=O)C(O)N(Cc2cccc([N+](=O)[O-])c2)C1=O (stereo not given)	Aldo-keto reductase family 1 member A1 (Rattus norvegicus) (UniProt P51635)	19
O=C(O)CN1C(=O)C(=O)N(Cc2ccc(Cl)c([N+](=O)[O-])c2)C1=O	Aldo-keto reductase family 1 member A1 (Rattus norvegicus) (UniProt P51635)	39.5
O=C(O)CN1CC(=O)N(Cc2nc3c(Cl)cccc3s2)C1=O	Aldo-keto reductase family 1 member A1 (Rattus norvegicus) (UniProt P51635)	37

Query: Provide the documented inhibition with Aldo-keto reductase family 1 member A1 (Rattus norvegicus) (UniProt P51635) as the system for "O=C(O)CN1C(=O)C(=O)N(Cc2cccc([N+](=O)[O-])c2)C1=O"
Reply: 37.3

====

biological target: Aldo-keto reductase family 1 member A1 (Rattus norvegicus); experiment: In vitro inhibitory activity against rat kidney aldehyde reductase(ALR).
Quick list: IC50 per entry.

// worked examples, IC50 included
compound	IC50
O=C(O)CN1CC(=O)N(Cc2nc3c(Cl)cccc3s2)C1=O	> 100 µM
O=C(O)CN1C(=O)N(Cc2cccc([N+](=O)[O-])c2)C(=O)C1O (centres undefined)	> 100 µM
O=C(O)CN1C(=O)C(=O)N(Cc2cccc([N+](=O)[O-])c2)C1=S	28 µM

Let us move to another entry and its IC50.
Query: IC50; subject: "O=C(O)CN1C(=O)CC(=O)N(Cc2cccc([N+](=O)[O-])c2)C1=O"
Reply: > 100 µM

====

target: Aldo-keto reductase family 1 member A1 (Rattus norvegicus); assay: Percent inhibition of rat kidney Aldehyde reductase (ALR) at 1x10E-4 M
test_readout: inhibition (%)
Field: numeric (%). Do not append units.

// worked examples, inhibition included
chemical_string	measurement_unit	inhibition
O=C(O)Cn1c(=O)ccn(Cc2cccc([N+](=O)[O-])c2)c1=O	%	11.8
O=C(O)CN1CC(=O)N(Cc2cccc([N+](=O)[O-])c2)C1=O	%	3.8
O=C(O)CN1C(=O)CC(=O)N(Cc2cccc([N+](=O)[O-])c2)C1=O	%	33.5

Let us move to another entry and its inhibition.
Query: inhibition; subject: "O=C(O)Cn1ccc(=O)n(Cc2nc3cc(Cl)ccc3s2)c1=O"
Reply: 32
